- System: SK-MEL-2 melanoma
- test name: NCI-60 one-dose screen, 48 h (100 = growth as untreated, 0 = no growth, -100 = all killed)
- cond: 10 µM unless noted
Compounds without any hit were thinned out: in the full panel of roughly 83,000, 20% have a hit.
Listed compounds paired with reported growth
Field format: number, assumed %, no unit text.

CCCCn1c(=O)c(/C=C/C(=O)/C=C/c2ccc(OC)cc2)cc2cc(Cl)ccc21: 84
O=C1c2ccccc2C(=O)c2c1oc1c2c(=O)[nH]c2ccc(Cl)cc21: 31.8
COC(=O)CCc1cc(O)c2c(c1)[C@@H](C(=O)OC)[C@H](c1ccc(O)c(O)c1)O2: 47.8
CC(=O)ON1CCCC(P(=O)(OCOC(=O)C(C)(C)C)OCOC(=O)C(C)(C)C)C1=O (stereo unspecified): 9.04
Oc1ccc(CNNc2ccnc3c(O)cccc23)c2cccnc12: 31.4

IN: Recorded growth of `COc1ccc(-c2cs/c(=N\N=C\c3ccc(O)cc3O)n2/N=C/c2ccc(O)cc2O)cc1` , please.
OUT: -28.4

====

- System: NCI-H23 lung
- test name: NCI-60 one-dose screen, 48 h (100 = growth as untreated, 0 = no growth, -100 = all killed)
- cond: 10 µM unless noted
The panel holds about 83,000 compounds, 20% with a hit somewhere; the sample as a whole holds those more often.
parameter: growth (%)
Field format: number, assumed %, no unit text.

Below are worked cases with known answers.
CCOC(=O)C1=C(C)n2nc(CC#N)c(C#N)c2NC1c1ccc(CC)cc1 (centres undefined): 85.6
NC(N)=NC(N)=Nc1cc2ccccc2c2ccccc12: 44.8
COc1ccc(C(=O)c2cc(OC)c(OC)c(OC)c2)cc1OC(=O)C(Cl)(Cl)Cl: 26.9
O=C1[C@@H](OS(=O)(=O)CC(F)(F)F)[C@H](c2ccc(F)cn2)N1c1cc2c3ccccc3ccc2c2ccccc12: 84.5
C=C1C(=O)O[C@H]2[C@H]1CC/C(COC(=O)c1cc3ccccc3o1)=C\CC[C@@]1(C)O[C@@H]21: 32.8
O=C1Nc2ccccc2C12C=C(c1ccccc1)Nc1c2c(-c2ccccc2)nn1-c1ccccc1 (centres undefined): 84.1

IN: Recorded growth of `O=C1CS/C(=N/c2nnc(-c3ccc(O)cc3)s2)N1` , please.
OUT: 90

IN: Please answer likewise for `COc1cc(NC(=O)Nc2cnc(Nc3ccc(N4CCOCC4)cc3)nc2Oc2ccc(C(F)(F)F)cc2)cc(OC)c1`
OUT: 105

IN: Please answer likewise for `Cc1cnc(-c2ccc(-c3ccc(NC(=O)Nc4c(F)cc(F)cc4F)cc3F)c3c2C(=O)NC3)[nH]1`
OUT: 20.8

IN: Please answer likewise for `CCN1CCN(Cc2ccc(NC(=O)c3cccc(C#Cc4cccc5[nH]nc(N)c45)c3)cc2C(F)(F)F)CC1`
OUT: -42.9

IN: Please answer likewise for `NC[C@@H]1CCN(c2cc3c(cc2F)c(=O)n(N)c(=O)n3Cc2ccc(-c3ccccc3)cc2)C1`
OUT: 87.2

IN: Please answer likewise for `C=C(C)[C@@H]1CCC=C2CC[C@]3(C)[C@H](CC[C@@H]4[C@@]5(C)CCCNC(C)(C)[C@@H]5CC[C@]43C)[C@H]21`
OUT: 66.5

IN: Please answer likewise for `O=c1cc(/C=N\Nc2nc(-c3ccc(Cl)cc3Cl)cs2)c2cc(Cl)ccc2o1`
OUT: 85.3
